The measurements presented in this section are drawn from patent EP1167527A9.

# TARGET_ENTITY: T1, chemokine receptor CCR1 (human, UniProt P32246 1-355)
# T1 construct: whole, on cells
# T1 sequence (looked up): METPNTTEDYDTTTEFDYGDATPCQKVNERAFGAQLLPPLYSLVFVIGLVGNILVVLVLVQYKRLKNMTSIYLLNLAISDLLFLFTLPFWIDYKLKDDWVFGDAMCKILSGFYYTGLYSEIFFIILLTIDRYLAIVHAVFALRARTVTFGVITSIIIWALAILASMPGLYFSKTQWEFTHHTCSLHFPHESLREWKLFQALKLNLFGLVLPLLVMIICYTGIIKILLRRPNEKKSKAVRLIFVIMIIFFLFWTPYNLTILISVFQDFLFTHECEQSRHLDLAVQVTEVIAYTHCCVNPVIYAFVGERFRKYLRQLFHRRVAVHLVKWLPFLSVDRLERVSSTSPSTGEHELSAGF
# ASSAY_OVERVIEW: radioligand competition, 125I-Rantes tracer, CCR1
REPORTED_ENDPOINT: pKi
Note on pKi: it is the negative log10 of concentration, concentration in mol/L.

Quick one: pKi for processed human chemokine PHC-1 (ligand, Purified from human hemofiltrate or made by tryptic digestion of HCC-1 (1-74); also called HCC-1[9-74]; HCC-1, residues 9-74) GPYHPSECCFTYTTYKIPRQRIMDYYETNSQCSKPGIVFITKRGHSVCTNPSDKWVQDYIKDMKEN ?
10.64
